All values here come from patent US20070275954A1.

attributeMeasured: melting point

Worked examples, 4 compounds total:
CNC1=Nc2ncccc2C(c2cn[nH]c2)=NC1c1cccs1 (stereo not shown)
187 to 194 °C
CNC1=Nc2ncccc2C(c2ccsc2)=NC1c1cccs1 (stereo not shown)
85 to 88 °C
CNC1=Nc2ncccc2C(c2cnc[nH]2)=NC1c1cccs1 (stereo not shown)
280 to 290 °C
CNC1=Nc2ncccc2C(c2cc[nH]n2)=NC1c1cccs1 (stereo not shown)
269 to 272 °C

In plain terms, CNC1=Nc2ncccc2C(c2ccc[nH]2)=NC1c1cccs1 (stereo not shown) has a documented melting point of 165 to 170 °C

Record summary for CNC1=Nc2ncccc2C(c2ccoc2)=NC1c1cccs1 (stereo not shown) : reported melting point = 110 to 114 °C

melting point in this record for c1csc(C2N=C(c3cc[nH]c3)c3cccnc3N=C2N2CCC2)c1 (stereo not shown) : 168 to 172 °C

melting point for Cn1ccnc1C1=NC(c2cccs2)C(N2CCC2)=Nc2ncccc21 (stereo not shown) is 215 to 217 °C

Please fill in: melting point reported for c1csc(C2N=C(c3ccsc3)c3cccnc3N=C2NC2CC2)c1 (stereo not shown) = 90 to 96 °C

Lab book: melting point of c1csc(C2N=C(c3ccsc3)c3cccnc3N=C2N2CCC2)c1 (stereo not shown) noted as 90 to 95 °C
